Sourced from patent US20070265301A1

targetDesc: DPP-IV (Homo sapiens)
Construct: Soluble human DPP-IV lacking the transmembrane anchor (Gly31-Pro766); Pre-Pro-alpha-mating factor leader (secretion signal) (N, cleaved yes)
Sequence (P27487 31-766): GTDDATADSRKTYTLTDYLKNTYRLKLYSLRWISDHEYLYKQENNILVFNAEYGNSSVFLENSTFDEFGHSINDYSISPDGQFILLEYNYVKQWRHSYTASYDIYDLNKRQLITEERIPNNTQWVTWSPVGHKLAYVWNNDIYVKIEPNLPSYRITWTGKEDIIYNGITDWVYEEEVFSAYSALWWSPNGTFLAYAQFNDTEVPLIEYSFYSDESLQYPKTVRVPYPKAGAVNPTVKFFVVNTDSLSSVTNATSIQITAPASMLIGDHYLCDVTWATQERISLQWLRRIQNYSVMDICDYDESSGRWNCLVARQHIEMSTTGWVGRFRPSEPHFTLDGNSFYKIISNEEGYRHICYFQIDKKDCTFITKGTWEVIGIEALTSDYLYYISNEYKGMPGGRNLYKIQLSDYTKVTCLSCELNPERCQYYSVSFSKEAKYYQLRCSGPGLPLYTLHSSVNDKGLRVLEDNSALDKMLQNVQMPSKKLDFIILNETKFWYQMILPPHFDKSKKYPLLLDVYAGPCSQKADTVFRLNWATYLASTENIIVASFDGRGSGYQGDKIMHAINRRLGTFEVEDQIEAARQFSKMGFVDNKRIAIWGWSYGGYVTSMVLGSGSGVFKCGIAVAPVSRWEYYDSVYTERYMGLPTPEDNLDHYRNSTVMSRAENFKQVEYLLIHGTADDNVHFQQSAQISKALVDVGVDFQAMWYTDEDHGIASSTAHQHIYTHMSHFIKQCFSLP
procedureText: Continuous fluorimetric assay of DPP-IV peptidase activity (Gly-Pro-AMC cleavage)
conditionDescription: 50 pM DPP-IV, 16 μM Gly-Pro-AMC, pH 7.4, 25° C., 1% DMSO; values grouped in 3 classes; read-out: IC50 for inhibition of DPP-IV peptidase activity
pIC50: −log10 of the molar value. Counter-ions that a name gives are not always drawn.
Recorded pIC50 for the following compounds

Check out these entries, answers already filled in.
>>> result("N[C@@H](CC(=O)N1Cc2ccccc2C[C@H]1CNS(=O)(=O)C1CC1)Cc1ccccc1F [Example 9, trifluoroacetate salt]")
"≥ 7.00"
>>> result("Nc1nc(C(=O)NC[C@@H]2Cc3ccccc3CN2C(=O)C[C@H](N)Cc2ccccc2F)n[nH]1 [Example 6, trifluoroacetate salt]")
"≥ 7.00"
>>> result("NC(CC(=O)N1Cc2ccccc2C[C@H]1CNS(=O)(=O)C1CC1)Cc1cc(F)ccc1F (mixture of isomers) [Example 11, trifluoroacetate salt]")
"≥ 7.00"
>>> result("N[C@@H](CC(=O)N1Cc2ccccc2C[C@H]1CNC(=O)C1(O)CC1)Cc1ccccc1F [Example 2, trifluoroacetate salt]")
"6.00 to 7.00"

Proceed to the following item.
Q. # query: pIC50 of entry N[C@@H](CC(=O)N1c2ccccc2CC1COCc1ccccc1)Cc1ccccc1F (mixture of isomers) [Example 13, trifluoroacetate salt]
A. 5.70 to 6.00
